- System: Coxsackievirus
- method description: Ratio of the MIC50 of 6-(4-Nitro-phenoxy)-nicotinonitrile compared to compound obtained in the same test for coxsackie A21
- Format: functional
Recorded Relative activity for the following compounds
# output: bare number, no unit

Example results:
1) CC(=O)c1ccc(Oc2ccc([N+](=O)[O-])cc2C#N)cc1 :: 0.68
2) N#Cc1cc(N)ccc1Oc1ccc(Cl)c(Cl)c1 :: 11.8
3) N#Cc1cc(Cl)ccc1Oc1ccc(Cl)c(Cl)c1 :: 5.2
4) CS(=O)(=O)c1ccc(Oc2cccc(Cl)c2)cc1 :: 0.59
5) N#Cc1ccccc1Oc1ccc(Cl)c(Cl)c1 :: 1.1
6) N#Cc1ccc(Oc2ccc([N+](=O)[O-])cc2C#N)cc1 :: 0.33
7) N#Cc1cc([N+](=O)[O-])ccc1Oc1ccc(C(=O)c2ccccc2)cc1 :: 1.4
8) N#Cc1cc([N+](=O)[O-])ccc1Oc1cccc(Cl)c1 :: 11.8

**Q:** Quick one: Relative activity of Cc1ccc(Oc2ccc(S(C)(=O)=O)cc2)cc1 ?
**A:** 1

**Q:** Would you kindly repeat that for CS(=O)(=O)c1ccnc(Oc2ccc(Cl)c(Cl)c2)c1 ?
**A:** 10.4

**Q:** Next up: CS(=O)(=O)c1ccc(Oc2ccc(Cl)cc2)cc1
**A:** 11.8

**Q:** Same question for Cc1ccc(Oc2ccc([N+](=O)[O-])cc2C#N)cc1 please.
**A:** 2.2
